# target: human IFN-α6 (human, UniProt P05013 24-189, limits assumed)
# Sequence (P05013 24-189 limits assumed): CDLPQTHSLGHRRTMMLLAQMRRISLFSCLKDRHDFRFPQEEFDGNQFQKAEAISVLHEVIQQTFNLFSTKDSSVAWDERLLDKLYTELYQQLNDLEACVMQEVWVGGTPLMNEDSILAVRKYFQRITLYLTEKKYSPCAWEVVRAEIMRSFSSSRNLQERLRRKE
# assay-protocol: cell-based or functional assay
Measured IC 50 (ng/ml), ISRE dual luciferase reporter assay of individual entries
All answers are understood in ng/mL, so give the number only.

The following binders have reported results that may help.
Memo: 26B9 (antibody, human IgG1, kappa, V domains shown, human-derived IgG1, kappa; also called MAB 26B9; hMAB 26B9) VH: QILLQESGPGLVKPTETLSLTCSVSGDSISDSSHYWAWIRQPPGKGPEWIGSVYFSSMTHYNPSLKSRVSISVDKPKNQFSLKVTSVTVADTATYYCARQALARVGAMNWFDPWGQGSLVTVSS VL: DIIMTQSPDSLPVSLGEGVTINCKSSQSVFFTSSNKSCLAWYQQKPGKSPKLLIYWASTRQSGVPDRFRGSGSGTDFSLTITSLQAEDVAVYFCQQCQTSPPTFGGGTRLEIKR , reported IC 50 (ng/ml), ISRE dual luciferase reporter assay: 3.16

Memo: 8H1 (antibody, human IgG1, kappa, V domains shown) VH: QVQLVQSGAEVKKPGASVKVSCKASGQTFTSDDINWVRQAPGQGLEWMGWRNPNTQDTGYAQKFHGRLTLTSNSSISTSYLELSGLRSEDTAVYYCARAGTSTLTGHYFALGVWGQGTTVIVSS VL: DIQLTQSPSSLSASVGDRVTITCQATQDISKYLNWYQQKPGKVPKLLIYETSNLEVGVPSRFSGSGSGTHFTLTISSLQAEDFATYYCQQYENFPFTFGGGTKVEIKR , reported IC 50 (ng/ml), ISRE dual luciferase reporter assay: 77.7

Memo: 12H5 (antibody, human IgG1, kappa, V domains shown) VH: QVQLIQSGPEVKRPGASVKVSCKASENTFDTHYINWVRQAPGQGLTWLGWLNPTTGKTGFPQKFKGRVILTSDTSLNTAYMEVSRLTSEDTAVYFCARVLKLSDEYNYGFDVWGQGTTVIVSS VL: DIQVTQSPSSLSASIGDRVTITCRASQNILTFINWYQHKPGKAPKLLIYAASVLQNEVPSRFSGSGSGTDFTLTITSLQPDDFGTYYCQQTYLTPQCSFGQGTKVEIKR , reported IC 50 (ng/ml), ISRE dual luciferase reporter assay: 3.55

Alright, here's another binder for you.
Memo: 50E11 (antibody, human IgG1, kappa, V domains shown) VH: QVQLVQSGAEMKKPGSSVKVSCKDFGGTFSVYGVNWVRQAPGQGLEWMGGLIPVIGPANYAQKFQGRITITADESTSTAYMELSSLRFDDTAIYYCVRDDNEYWGQGTLVTVSS VL: EMVLTQSPATLSLSPGERATLSCRASQTVSTFLAWYQQKPGQVPRLLVYDISSRANGTPARFSGGGSGTDFTLTISSLELEDFAVYYCQWRSNWPPSLTFGGGTRVEIKR , reported IC 50 (ng/ml), ISRE dual luciferase reporter assay: 39.3
